Values compiled from the supplement of paper PMC10567573.

B1: DLC1 (parent)
chain: KRSWEEHVTHWMGQPFNSDDRNTA

Variants of: B1
ASSAY_PROTOCOL: protein stability index of a GFP-peptide fusion (GPS, HEK-293T) (PSI 1-6); higher = more stable;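 note: lentivirally expressed fusions sorted by FACS into six bins by GFP to DsRed ratio, PSI derived from sequencing read proportions per bin multiplied by bin number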
MEASUREMENT_CONDITIONS: c terminus: a fixed tail appended

RECORD_SEQUENCE: KRSWEEHKTHWMGQPFNSDDRNTA [V8K]
protein stability index: 4.26

RECORD_SEQUENCE: KRSWEEHVTHWMGQPFNSDDQNTA [R21Q]
protein stability index: 3.07

RECORD_SEQUENCE: KRSMEEHVTHWMGQPFNSDDRNTA [W4M]
protein stability index: 3.95

RECORD_SEQUENCE: KRSWGEHVTHWMGQPFNSDDRNTA [E5G]
protein stability index: 3.07

RECORD_SEQUENCE: KRSWEEHVTHWMGQPHNSDDRNTA [F16H]
protein stability index: 2.77

RECORD_SEQUENCE: KRSWEEHPTHWMGQPFNSDDRNTA [V8P]
protein stability index: 4.21

RECORD_SEQUENCE: DRSWEEHVTHWMGQPFNSDDRNTA [K1D]
protein stability index: 4.26

RECORD_SEQUENCE: KRSWEEHVTHWMGQAFNSDDRNTA [P15A]
protein stability index: 2.95

RECORD_SEQUENCE: KRSWEEHVTHWMGWPFNSDDRNTA [Q14W]
protein stability index: 2.03

RECORD_SEQUENCE: KRSWEEHVTHAMGQPFNSDDRNTA [W11A]
protein stability index: 2.97

RECORD_SEQUENCE: KRSWDEHVTHWMGQPFNSDDRNTA [E5D]
protein stability index: 3.94

RECORD_SEQUENCE: KRSWEEHVTHWMGMPFNSDDRNTA [Q14M]
protein stability index: 2.34

RECORD_SEQUENCE: KRSWEEHVTHWMGQPFNRDDRNTA [S18R]
protein stability index: 2.1

RECORD_SEQUENCE: KRSWEEHVTHWMGQPFNSDDRATA [N22A]
protein stability index: 1.81

RECORD_SEQUENCE: KRSWEQHVTHWMGQPFNSDDRNTA [E6Q]
protein stability index: 3.27

RECORD_SEQUENCE: KRSWEEAVTHWMGQPFNSDDRNTA [H7A]
protein stability index: 3.54

RECORD_SEQUENCE: KRSWEEHVTHWMGQPFNSPDRNTA [D19P]
protein stability index: 2.73

RECORD_SEQUENCE: KRSWEEHVTHWMGQPFNSDSRNTA [D20S]
protein stability index: 1.91

RECORD_SEQUENCE: KRSWEEHVTHWWGQPFNSDDRNTA [M12W]
protein stability index: 1.94

RECORD_SEQUENCE: KRSWEEHVTHWMGQPFNSDDANTA [R21A]
protein stability index: 2.64

RECORD_SEQUENCE: KRSWEEHVTHWMGQPFNSDDNNTA [R21N]
protein stability index: 3.91

RECORD_SEQUENCE: KRSWEEHVTHWMGQPFNDDDRNTA [S18D]
protein stability index: 3.1

RECORD_SEQUENCE: KRSWEEHVTHWMGQPFNHDDRNTA [S18H]
protein stability index: 2.66

RECORD_SEQUENCE: KRSWEEKVTHWMGQPFNSDDRNTA [H7K]
protein stability index: 3.44

RECORD_SEQUENCE: KRSWEEHVTHWMGQPFNYDDRNTA [S18Y]
protein stability index: 2.26

RECORD_SEQUENCE: KRSWVEHVTHWMGQPFNSDDRNTA [E5V]
protein stability index: 2.65

RECORD_SEQUENCE: KRSWEEHVTHWMGQPNNSDDRNTA [F16N]
protein stability index: 3.62

RECORD_SEQUENCE: KRSWMEHVTHWMGQPFNSDDRNTA [E5M]
protein stability index: 3.13

RECORD_SEQUENCE: KRSWEEHHTHWMGQPFNSDDRNTA [V8H]
protein stability index: 4.04

RECORD_SEQUENCE: KRSWEEHVTHWMGQPFNADDRNTA [S18A]
protein stability index: 3.48

RECORD_SEQUENCE: KRSWEEHVDHWMGQPFNSDDRNTA [T9D]
protein stability index: 4.32

RECORD_SEQUENCE: KRSWEEHVCHWMGQPFNSDDRNTA [T9C]
protein stability index: 2.6

RECORD_SEQUENCE: KRSWEEHVTHWMGQPFNSDDRWTA [N22W]
protein stability index: 1.7

RECORD_SEQUENCE: KRSWEEHVTHWFGQPFNSDDRNTA [M12F]
protein stability index: 2.94

RECORD_SEQUENCE: KRSWEEHVTHWMFQPFNSDDRNTA [G13F]
protein stability index: 1.82

RECORD_SEQUENCE: KRSWEEHVTHWMGQPFNSDFRNTA [D20F]
protein stability index: 2.29

RECORD_SEQUENCE: KRSWEEHVTHWMGQPFCSDDRNTA [N17C]
protein stability index: 2.23

RECORD_SEQUENCE: KPSWEEHVTHWMGQPFNSDDRNTA [R2P]
protein stability index: 3.37

RECORD_SEQUENCE: KKSWEEHVTHWMGQPFNSDDRNTA [R2K]
protein stability index: 2.6

RECORD_SEQUENCE: KRSWEEHVTHWMGSPFNSDDRNTA [Q14S]
protein stability index: 2.37

RECORD_SEQUENCE: KRLWEEHVTHWMGQPFNSDDRNTA [S3L]
protein stability index: 3.37

RECORD_SEQUENCE: KRSWEEHVTHWMGQPFNSDDRMTA [N22M]
protein stability index: 2.28

RECORD_SEQUENCE: KRSWEEHVTHGMGQPFNSDDRNTA [W11G]
protein stability index: 2.69

RECORD_SEQUENCE: KRSWEEHVTHWMGQRFNSDDRNTA [P15R]
protein stability index: 2.41

RECORD_SEQUENCE: KRSWEEHVTHWMGQPFNSDDRNTL [A24L]
protein stability index: 2.89

RECORD_SEQUENCE: KRSWEEHVTHWMGQKFNSDDRNTA [P15K]
protein stability index: 2.85
